# APPLIED CONDITIONS: in acetonitrile, 331.75 K
PARAMETER: solubility (mole fraction)

>>> value_reported("Cc1ccccc1C(=O)O")
0.393

* * *

# APPLIED CONDITIONS: in DMAc, 320.25 K
PARAMETER: solubility (mole fraction)

>>> value_reported("Cc1ccccc1C(=O)O")
0.133

* * *

# APPLIED CONDITIONS: in DMAc, 331.95 K
PARAMETER: solubility (mole fraction)

>>> value_reported("O=C(O)c1ccccc1C(=O)O")
0.396

* * *

# APPLIED CONDITIONS: in acetonitrile, 325.15 K
PARAMETER: solubility (mole fraction)

>>> value_reported("O=C(O)c1ccccc1C(=O)O")
0.0429

* * *

# APPLIED CONDITIONS: in DMF, 326.15 K
PARAMETER: solubility (mole fraction)

>>> value_reported("O=C(O)c1ccccc1C(=O)O")
0.476

* * *

# APPLIED CONDITIONS: in DMF, 311.05 K
PARAMETER: solubility (mole fraction)

>>> value_reported("O=C(O)c1ccccc1C(=O)O")
0.426

* * *

# APPLIED CONDITIONS: in acetonitrile, 338.15 K
PARAMETER: solubility (mole fraction)

>>> value_reported("Cc1ccccc1C(=O)O")
0.409

* * *

# APPLIED CONDITIONS: in acetonitrile, 310.65 K
PARAMETER: solubility (mole fraction)

>>> value_reported("Cc1ccccc1C(=O)O")
0.34

* * *

# APPLIED CONDITIONS: in propionic acid, 306.65 K
PARAMETER: solubility (mole fraction)

>>> value_reported("O=C(O)c1ccccc1C(=O)O")
0.00404

* * *

# APPLIED CONDITIONS: in DMAc, 321.15 K
PARAMETER: solubility (mole fraction)

>>> value_reported("O=C(O)c1ccccc1C(=O)O")
0.323
